target.entity: recombinant human glypican-3 (human, UniProt P51654 25-580)
experiment.notes: SPR; Biacore T100; NT4-biotin captured on streptavidin on a CM5 chip; HSPG diluted in HBS-EP+ (Hepes 10 mM, NaCl 150 mM, EDTA 3.4 mM, 0.05% p20, pH 7.4) injected over it; 1:1 Langmuir model
condition.set: both partners purified
readout.label: pKd
// scale note: pKd = -log10(conc_M); give the bare number

In: Dear colleague, I am looking for the recorded pKd of the following binder: ELYENKPRRPYIL (pyroglutamate at position 1 (pyE); the four arms are built on a branching core of lysines, K2K-PEG12-K(biotin), the 13-amino-acid arm of the tetrabranched peptide; the first letter is pyroglutamate (printed pyE); Tetrabranched: four copies of the arm joined by their C-termini to the amines of a three-lysine core (K2K), followed by PEG12 and Lys(biotin); The core is not written as a chain; also called NT4 peptide; NT4 conjugated with biotin; source: synthetic peptide (Fmoc chemistry, HPLC purified); not …) [NT4-biotin (pyELYENKPRRPYIL)4K2K-PEG12-K(biotin)]
Out: 7.22

Reference for the values: paper PMC6759624
